This collection of values is drawn from patent US20220125745A1.

Tested on: A549 cells (cancer cells)
Assay: Lactate assay (luminescence) in A549 cells, candidate substance alone or combined with a substance that causes lactic acidosis
Assay type: cell-based
Conditions: A549; candidate 50 μM + berberine 10 μM; relative to berberine alone (PC)
property_label: Lactic acid value vs. PC (%)
Answers are plain numbers, in %.

>>> endpoint_value("CCN(CC)c1ccc(C=O)cc1 [DEAB, Diethylaminobenzaldehyde]")
91.95
>>> endpoint_value("CC(C)=CCCC(C)=CC=O [Citral]")
95.67
>>> endpoint_value("CCSC(=O)N1CCCCCC1 [Molinate]")
105.78
>>> endpoint_value("C=C(OP(=O)([O-])O)C(=O)O.O.[Na+]")
90.07
>>> endpoint_value("CS(=O)(=O)Nc1ccc(-c2coc3cc(OCc4cccc(C(=O)O)c4)ccc3c2=O)cc1 [CVT-10216]")
95.79
>>> endpoint_value("CCCNC(=O)NS(=O)(=O)c1ccc(Cl)cc1 [Chlorpropamide]")
90.69
>>> endpoint_value("CCCCNC(=O)n1c(NC(=O)OC)nc2ccccc21 [Benomyl]")
88.55
>>> endpoint_value("Cc1cc2c(C(C)C)c(O)c(O)c(C=O)c2c(O)c1-c1c(C)cc2c(C(C)C)c(O)c(O)c(C=O)c2c1O [Gossypol]")
62.63
>>> endpoint_value("CCN(CC)C(=S)SSC(=S)N(CC)CC [Disulfiram]")
75.67
>>> endpoint_value("N#CN [Cyanamide]")
96.56

Q) Consider the compound O=CC(=O)c1ccccc1 [Phenylglyoxal] and give its recorded Lactic acid value vs. PC (%).
A) 90.18

====

System: L132 cells (normal cells)
Assay: Lactate assay (luminescence) in L132 cells, candidate substance alone or combined with a substance that causes lactic acidosis
Format: cell-based
Conditions: L132; candidate 50 μM + linezolid 200 μM; relative to linezolid alone (PC)
property_label: Lactic acid-decreasing rate vs. PC (%)
Please append the unit to your numeric answer.

>>> endpoint_value("N#CN [Cyanamide]")
"11.01%"

Batch: Lactic acid-decreasing rate vs. PC (%) for all items listed.
1. CC(C)=CCCC(C)=CC=O
2. CCN(CC)C(=S)SSC(=S)N(CC)CC
3. O=C(O)c1cc(=O)c2ccccc2[nH]1
4. CCSC(=O)N1CCCCCC1 [Molinate]
5. CCCNC(=O)NS(=O)(=O)c1ccc(Cl)cc1 [Chlorpropamide]

A)
−2.02%
12.84%
6.47%
−25.68%
9.89%

====

System: L132 cells (normal cells)
Assay: Lactate assay (luminescence) in L132 cells, candidate substance alone or combined with a substance that causes lactic acidosis
Assay type: cell-based
Conditions: L132; candidate 50 μM + linezolid 200 μM; relative to linezolid alone (PC)
Response field label: string, one of yes (1) (Lactic acid-decreasing rate vs. PC (%) strictly below 10%) or no (0).

>>> assigned_category("O=c1c(-c2ccc(O)cc2)coc2cc(O[C@@H]3O[C@H](CO)[C@@H](O)[C@H](O)[C@H]3O)ccc12")
"no (0)"
>>> assigned_category("N.N.[Cl][Pt][Cl] [CDDP, Cis-diamminedichloridoplatinum]")
"no (0)"
>>> assigned_category("C=C(OP(=O)([O-])O)C(=O)O.O.[Na+]")
"no (0)"
>>> assigned_category("CCN(CC)c1ccc(C=O)cc1")
"yes (1)"

Q) # check: Lactic acid-decreasing rate vs. PC (%) < 10% for `C#CCN(C)Cc1ccccc1`
A) no (0)

====

Tested on: L132 cells (normal cells)
Experiment: Lactate assay (luminescence) in L132 cells, candidate substance alone or combined with a substance that causes lactic acidosis
Assay type: cell-based
Settings: L132; candidate 50 μM + linezolid 200 μM; relative to linezolid alone (PC)
property_label: Lactic acid value vs. PC (%)
Answers are plain numbers, in %.

>>> endpoint_value("N.N.[Cl][Pt][Cl] [CDDP, Cis-diamminedichloridoplatinum]")
68.28
>>> endpoint_value("N#CN [Cyanamide]")
88.99
>>> endpoint_value("CCN(CC)c1ccc(C=O)cc1 [DEAB, Diethylaminobenzaldehyde]")
105.21
>>> endpoint_value("C#CCN(C)Cc1ccccc1 [Pargyline]")
88.70
>>> endpoint_value("CC(C)=CCCC(C)=CC=O [Citral]")
102.02
>>> endpoint_value("CCCNC(=O)NS(=O)(=O)c1ccc(Cl)cc1 [Chlorpropamide]")
90.11

Could you now consider this next compound?
Q) Consider the compound `C=C(OP(=O)([O-])O)C(=O)O.O.[Na+]` and give its recorded Lactic acid value vs. PC (%).
A) 89.30

====

Tested on: A549 cells (cancer cells)
Assay: Lactate assay (luminescence) in A549 cells, candidate substance alone or combined with a substance that causes lactic acidosis
Format: cell-based
Conditions: A549; candidate 50 μM + phenformin 100 μM; relative to phenformin alone (PC)
property_label: Lactic acid value vs. PC (%)
One number for each entry, in %.

Some molecules with known Lactic acid value vs. PC (%) results, for comparison:
>>> endpoint_value("CCN(CC)C(=S)SSC(=S)N(CC)CC")
90.83
>>> endpoint_value("O=C(O)c1cc(=O)c2ccccc2[nH]1")
92.58

Could you now consider this next molecule?
Q) Consider the molecule `CC(C)=CCCC(C)=CC=O` and give its recorded Lactic acid value vs. PC (%).
A) 93.80
